For each entry below, report its pIC50 value.
# tested.target: UniProt Q13191
# Sequence (Q13191 36-427): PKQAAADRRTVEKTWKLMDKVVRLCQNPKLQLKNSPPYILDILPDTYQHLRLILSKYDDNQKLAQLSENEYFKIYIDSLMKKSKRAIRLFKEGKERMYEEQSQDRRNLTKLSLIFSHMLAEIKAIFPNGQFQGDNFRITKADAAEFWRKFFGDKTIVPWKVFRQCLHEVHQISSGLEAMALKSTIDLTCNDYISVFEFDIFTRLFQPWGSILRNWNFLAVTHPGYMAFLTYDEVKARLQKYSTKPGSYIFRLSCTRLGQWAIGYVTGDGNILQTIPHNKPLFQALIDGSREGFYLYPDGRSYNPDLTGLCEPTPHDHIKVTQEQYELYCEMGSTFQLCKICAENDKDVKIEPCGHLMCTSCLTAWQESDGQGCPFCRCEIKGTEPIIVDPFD
# run.description: Cbl-b inhibition assay (Cbl-b activity assay, FRET, Biological Example 1; 100 mM NaCl, 60 nM Src kinase)
# Assay type: biochemical
# condition.context: upper bound stated in text lists; read-out: IC50 values in the Cbl-b inhibition assay of Biological Example 1
pIC50: −log10 of the molar value.

## Input Looking for the measured pIC50 of Cn1cnnc1CC1(c2cccc(N3Cc4c(cc(CN5CC[C@H](c6ccccc6)C5)cc4C(F)(F)F)C3=O)c2)COC1 [Example 662a] , can you help?
## Output ≥ 7.00

## Input Another: C[C@H](Cc1nncn1C)c1cccc(NC(=O)c2cccc(C(F)(F)F)n2)c1 [Compound 183a]
## Output ≥ 7.00

## Input Moving on to CN1CCN(c2cc3c(c(C(F)(F)F)c2)CN(c2cccc(C4(Cc5nncn5C)COC4)c2)C3=O)CC12CC2 [Example 583]
## Output ≥ 7.00

## Input Thanks! And C[C@H](Sc1nncn1C)c1cccc(NC(=O)c2cc(C(=O)NC[C@@H](C)O)ccn2)c1 [Compound 156] ?
## Output ≥ 5.00

## Input One more compound: C[C@H](Cc1nncn1C)c1cccc(N2Cc3c(cc(CN4CC(F)C4)cc3C(F)(F)F)C2=O)c1 [Compound 401]
## Output ≥ 7.00

Report pIC50 for every entry below.
1. C[C@H](Cc1nncn1C)c1cccc(N2Cc3c(cc(CN4CC[C@H](F)C4)cc3C(F)(F)F)C2=O)c1 [Compound 399]
2. C[C@@H](c1cc2c(c(C(F)(F)F)c1)CN(c1cccc(C3(Cc4nncn4C)COC3)c1)C2=O)N1CCC2(CC1)CC2 [Example 558a]
3. C[C@H](Cc1nncn1C)c1cccc(NC(=O)c2cc(C(=O)N[C@@H]3CCNC3)ccn2)c1 [Compound 247]
4. C[C@H](Cc1nncn1C)c1cc(NC2COC2)nc(N2Cc3c(cccc3C(F)(F)F)C2=O)c1 [Compound 352]
5. Cc1cn(C)c(SC(C)c2ccnc(NC(=O)c3ccc4ccccc4n3)c2)n1 (centres unmarked) [Compound 129]

## Output
1. ≥ 7.00
2. ≥ 7.00
3. ≥ 5.00
4. ≥ 7.00
5. ≥ 5.00

// batch mode: one pIC50 value per listed entry
1. C[C@@H](Cc1nncn1C)c1cccc(NC(=O)c2cc(S(C)(=O)=O)cc(C3CC3)n2)c1 [Compound 198b]
2. Cn1cnnc1CC1(c2cccc(N3Cc4c(cc(C(O)c5ccccc5)cc4C(F)(F)F)C3=O)c2)COC1 (centres unmarked) [Example 697]
3. Cn1cnnc1CC1(c2cccc(N3Cc4c(cc(CN5CC[C@H](F)C5)nc4C4CC4)C3=O)c2)COC1 [Example 578]
4. Cc1cc(C(=O)Nc2cccc(C3(Cc4nncn4C)COC3)c2)n2nc(C)cc2n1 [Example 597]
5. C[C@H](c1cc2c(c(C(F)(F)F)c1)CN(c1cccc(C3(Cc4nncn4C)COC3)c1)C2=O)N1CC(C)(F)C1 [Compound 543b]
6. C[C@H](Cc1nncn1C)c1cccc(NC(=O)c2cc(S(C)(=O)=O)cc(C3CC3)n2)c1 [Compound 198]
7. COc1nc(C(=O)Nc2cc([C@H](C)Sc3nncn3C)ccn2)ccc1Cl [Compound 125]
8. C[C@H](Sc1nncn1C)c1ccnc(NC(=O)c2cc(C(F)(F)F)c(Cl)cn2)c1 [Compound 114]

## Output
1. ≥ 5.00
2. ≥ 7.00
3. ≥ 7.00
4. ≥ 6.52
5. ≥ 7.00
6. ≥ 6.30
7. ≥ 5.00
8. ≥ 5.00

Origin of values: patent US20220324835A1
